Where do these numbers come from? They come from patent US20090062223A1.

# System: Caco-2 cells
# method_notes: in vitro
# Type: in vitro ADME
quantity: Permeability Papp (A to B) × 10^−6 cm/s (Caco-2 A-B)

Take a look at these entries with their results.
Consider the molecule CC(=O)OC[C@H]1O[C@@H](n2cc3c4c(ncnc42)NC(=O)C=C3N)[C@@](C)(O)[C@@H]1OC(C)=O (stereo in doubt) [Compound 135] and give its measured Permeability Papp (A to B) × 10^−6 cm/s (Caco-2 A-B).
medium

Consider the molecule CC1(O)C(O)C(CO)OC1n1cc2c3c(ncnc31)NC(=O)C=C2N (stereo not drawn) [Compound 100, reference compound] and give its measured Permeability Papp (A to B) × 10^−6 cm/s (Caco-2 A-B).
low

Consider the molecule CCCCCC(=O)O[C@@H]1[C@@H](CO)O[C@@H](n2cc3c4c(ncnc42)NC(=O)C=C3N)[C@]1(C)O [Compound 113] and give its measured Permeability Papp (A to B) × 10^−6 cm/s (Caco-2 A-B).
medium

Consider the molecule CC(C)C(=O)OCOC(=O)NC1=CC(=O)Nc2ncnc3c2c1cn3[C@@H]1O[C@H](CO)[C@@H](O)[C@]1(C)O (stereo in doubt) [Compound 109] and give its measured Permeability Papp (A to B) × 10^−6 cm/s (Caco-2 A-B).
low

Consider the molecule CC(=O)OC[C@H]1O[C@@H](n2cc3c4c(ncnc42)NC(=O)C=C3N)[C@@]2(C)OC(=O)O[C@H]12 [Compound 108] and give its measured Permeability Papp (A to B) × 10^−6 cm/s (Caco-2 A-B).
medium

Others:
Consider the molecule CC(C)C(=O)O[C@@H]1[C@@H](CO)O[C@@H](n2cc3c4c(ncnc42)NC(=O)C=C3N)C1(C)O (stereo in doubt) [Compound 115] and give its measured Permeability Papp (A to B) × 10^−6 cm/s (Caco-2 A-B).
high
